assay: recombinant barcode read abundance after kanamycin selection (control-corrected) (log10(CPM+1)); higher = more efficient recombination; sequences stand for … in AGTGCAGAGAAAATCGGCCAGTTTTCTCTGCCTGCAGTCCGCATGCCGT…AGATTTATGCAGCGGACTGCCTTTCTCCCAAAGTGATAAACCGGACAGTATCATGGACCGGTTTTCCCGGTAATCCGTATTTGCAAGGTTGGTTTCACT; site = the 11-nt target
measured_attribute: recombinant barcode read abundance (log10)

{"sequence_text": "TAGTTTGCTTGGGTTCTAACCTGTTGCCG (site TAGTTTGCTCG)", "endpoint_result": 0.743}
{"sequence_text": "CGGACGTCTTGGGTTCTAACCTGTTGCCT (site CGGACGACTAG)", "endpoint_result": 0.12}
{"sequence_text": "GTGGTAGCTTGGGTTCTAACCTGTTGCCT (site GTGGTAACTAG)", "endpoint_result": 0.857}
{"sequence_text": "CTGATAACTTGGGTTCTAACCTGTTGCCT (site CTGATGACTAG)", "endpoint_result": 0.0814}
{"sequence_text": "AAATTTCCTTGGGTTCTAACCTGTTGCCT (site ATATTTCCTAG)", "endpoint_result": 0.123}
{"sequence_text": "TCACCTTCTTGGGTTCTAACCTGTTGCCT (site TCACCTTCTAG)", "endpoint_result": 0.274}
{"sequence_text": "CACATGCCTTGGGTTCTAACCTGTTGCTG (site CACATGCCTCA)", "endpoint_result": 2}
{"sequence_text": "CTGATAACTTGGGTTCTAACCTGTTGCCT (site CTGATCACTAG)", "endpoint_result": 0.279}
{"sequence_text": "ATCCGCTCTTGGGTTCTAACCTGTTGCCT (site CTCCGCTCTAG)", "endpoint_result": 1}
{"sequence_text": "CACTTGGCTTGGGTTCTAACCTGTTGCAG (site CACTGGGCTCT)", "endpoint_result": 0.468}
{"sequence_text": "TAGCACCCTTGGGTTCTAACCTGTTGCCA (site TAGCACCCTAG)", "endpoint_result": 0.394}
{"sequence_text": "AGGTATGCTTGGGTTCTAACCTGTTGCCT (site AGGTTTGCTAG)", "endpoint_result": 0.248}
{"sequence_text": "TTACGTACTTGGGTTCTAACCTGTTGCCT (site TTACGTACTAG)", "endpoint_result": 1.45}

---

assay: recombinant UMI read abundance after kanamycin selection (control-corrected) (log10(CPM+1)); higher = more efficient recombination; extreme values may be limits of the assay; sequences stand for … in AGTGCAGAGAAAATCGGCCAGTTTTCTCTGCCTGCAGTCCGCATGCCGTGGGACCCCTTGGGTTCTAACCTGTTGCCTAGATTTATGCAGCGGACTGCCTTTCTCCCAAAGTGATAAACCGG…AGGTTGGTTTCACT; site = the 11-nt donor
The threshold is inclusive: recombinant UMI read abundance (log10) of exactly 0.9 counts as rule met; values below receive rule not met.

{"sequence_text": "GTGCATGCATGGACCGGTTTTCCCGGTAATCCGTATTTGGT (site GTACATGCTAC)", "label_value": "rule met"}
{"sequence_text": "ACACGATCATGGACCGGTTTTCCCGGTAATCCGTATTTGTC (site ACACGATCTGA)", "label_value": "rule met"}
{"sequence_text": "CGCGATTCATGGACCGGTTTTCCCGGTAATCCGTATTTGGC (site CGCGATTCTGC)", "label_value": "rule met"}
{"sequence_text": "TTCCAAGCATGGACCGGTTTTCCCGGTAATCCGTATTTGAG (site CTCCAAGCTCT)", "label_value": "rule not met"}
{"sequence_text": "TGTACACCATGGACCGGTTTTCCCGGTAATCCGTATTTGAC (site TGTACATCTGT)", "label_value": "rule not met"}
{"sequence_text": "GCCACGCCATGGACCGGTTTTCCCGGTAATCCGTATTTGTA (site GGCACGCCTTA)", "label_value": "rule not met"}
{"sequence_text": "CGCTCGACATGGACCGGTTTTCCCGGTAATCCGTATTTGTT (site CGGTCGACTAA)", "label_value": "rule not met"}
{"sequence_text": "CTGCGTTCATGGACCGGTTTTCCCGGTAATCCGTATTTGGA (site CTGCGTTCTTC)", "label_value": "rule met"}
{"sequence_text": "TAGTACTCATGGACCGGTTTTCCCGGTAATCCGTATTTGCA (site TAGTACTCTTG)", "label_value": "rule met"}
{"sequence_text": "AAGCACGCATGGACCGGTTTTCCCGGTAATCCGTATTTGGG (site AAGCACGCTTC)", "label_value": "rule not met"}
{"sequence_text": "CGAGGACCATGGACCGGTTTTCCCGGTAATCCGTATTTGAA (site CGAGGACCTTT)", "label_value": "rule not met"}
{"sequence_text": "CCTAACACATGGACCGGTTTTCCCGGTAATCCGTATTTGGC (site CCTAACACTGC)", "label_value": "rule not met"}
{"sequence_text": "ATAAGGCCATGGACCGGTTTTCCCGGTAATCCGTATTTGAT (site ATAAGGCCTCT)", "label_value": "rule not met"}
{"sequence_text": "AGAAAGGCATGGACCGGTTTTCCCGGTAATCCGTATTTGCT (site AGAAAGGCTAG)", "label_value": "rule met"}
{"sequence_text": "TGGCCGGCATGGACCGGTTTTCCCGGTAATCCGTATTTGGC (site GGGCCGGCTGC)", "label_value": "rule not met"}
